experiment-summary: Mutagenicity in Saccharomyces cerevisiae D7 assessed as induction of mutagenesis by measuring forward and reverse mutations up to 0.1 mg/mL
Format: toxicity
reported-property: Activity

| item-smiles | reported-property | result |
| --- | --- | --- |
| CCN(c1ccc(C(=O)O)cn1)c1cc2c(cc1C)C(C)(C)CCC2(C)C | Activity | Non-Toxic |
| CCN(c1ccc2c(c1)C(C)(C)CCC2(C)C)c1cnc(C(=O)O)cn1 | Activity | Non-Toxic |
| CCN(c1cnc(C(=O)O)cn1)c1cc2c(cc1C)C(C)(C)CCC2(C)C | Activity | Non-Toxic |

---

tgt: Retinoic acid receptor RXR-alpha/oxysterols receptor LXR-alpha (Homo sapiens, UniProt P19793+Q13133)
Sequence (P19793 whole entry): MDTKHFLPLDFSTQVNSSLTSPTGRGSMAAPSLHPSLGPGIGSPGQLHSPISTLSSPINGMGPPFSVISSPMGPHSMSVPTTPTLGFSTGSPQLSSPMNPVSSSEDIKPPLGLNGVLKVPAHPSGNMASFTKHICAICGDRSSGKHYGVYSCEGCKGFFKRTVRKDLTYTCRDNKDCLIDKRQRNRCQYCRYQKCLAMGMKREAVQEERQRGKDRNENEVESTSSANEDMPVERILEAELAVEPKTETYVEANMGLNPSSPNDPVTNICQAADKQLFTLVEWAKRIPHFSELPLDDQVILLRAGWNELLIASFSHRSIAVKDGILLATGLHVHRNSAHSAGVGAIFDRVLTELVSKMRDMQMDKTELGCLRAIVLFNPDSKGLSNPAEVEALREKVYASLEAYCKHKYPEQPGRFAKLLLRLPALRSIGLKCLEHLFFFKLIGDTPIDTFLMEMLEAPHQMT
Sequence (Q13133 whole entry): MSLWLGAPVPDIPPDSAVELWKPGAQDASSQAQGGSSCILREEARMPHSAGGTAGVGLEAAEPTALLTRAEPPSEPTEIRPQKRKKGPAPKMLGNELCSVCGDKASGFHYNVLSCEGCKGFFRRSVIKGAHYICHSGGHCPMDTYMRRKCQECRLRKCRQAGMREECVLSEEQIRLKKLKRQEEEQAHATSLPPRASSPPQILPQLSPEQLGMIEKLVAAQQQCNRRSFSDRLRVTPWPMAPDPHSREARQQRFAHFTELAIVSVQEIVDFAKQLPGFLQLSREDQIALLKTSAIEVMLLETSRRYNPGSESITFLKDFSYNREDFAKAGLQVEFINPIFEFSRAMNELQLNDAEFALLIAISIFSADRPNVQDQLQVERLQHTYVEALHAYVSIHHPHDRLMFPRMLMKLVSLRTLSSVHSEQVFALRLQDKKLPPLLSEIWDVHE
experiment-summary: Agonist activity at human RXRalpha/LXRalpha expressed in human HCT116 cells assessed as reduction in SREBP-mediated transcription activity at 100 nM incubated for 24 hrs by luciferase reporter gene assay in presence of 100 nM LXR agonist TO901317 relative to bexarotene
Assay type: cell-based
Set-up: scale not given: the % may be the effect or the level left
condition-notes: 0.1 µM

| item-smiles | Activity |
| --- | --- |
| CCN(c1ccc(C(=O)O)cn1)c1cc2c(cc1C)C(C)(C)CCC2(C)C | 13 to 17% |
| CCN(c1ccc(C(=O)O)cc1)c1ccc2c(c1)C(C)(C)CCC2(C)C | Active |
| CCN(c1ccc(C(=O)O)c(F)c1)c1ccc2c(c1)C(C)(C)CCC2(C)C | Active |
